- assay_overview: Half life in male Sprague-Dawley rat at 1 mg/kg, iv measured upto 240 hrs by LC/MS/MS analysis
- Assay type: ADME, organism-based
- particulars: in vivo
readout: half-life (h)
Please reply with the bare figure in h and do not write the unit itself.

Data request: For the compound "Cc1cccc(-c2c(O)c3scc(Br)c3[nH]c2=O)c1" , what half-life is on record?
Data returned: 35.6

###

- assay_overview: Cmax in male Sprague-Dawley rat at 100 mg/kg, po measured upto 240 hrs by LC/MS/MS analysis
- Assay type: ADME, organism-based
- particulars: in vivo
readout: Cmax (µM)
Please reply with the bare figure in µM and do not write the unit itself.

Data request: For the compound "Cc1cccc(-c2c(O)c3scc(Br)c3[nH]c2=O)c1" , what Cmax is on record?
Data returned: 283

###

- Tested on: Mycobacterium tuberculosis
- assay_overview: Antimycobacterial activity against marker-free avirulent autoluminescent Mycobacterium tuberculosis H37Ra assessed as inhibition of relative light unit relative to control
- Assay type: functional
readout: log10(MIC90) (log10 of the value in µg/mL)
Give log10 of MIC90, with MIC90 taken in µg/mL.

These recorded examples may help you get a feel for the data.
compound_string	readout	numeric_value
O=c1[nH]c2c(Br)csc2c(O)c1-c1cccc(Cl)c1	log10(MIC90)	-0.30
CO[C@H]1/C=C/O[C@@]2(C)Oc3c(C)c(O)c4c(O)c(c(/C=N/N5CCN(C)CC5)c(O)c4c3C2=O)NC(=O)/C(C)=C\C=C\[C@H](C)[C@H](O)[C@@H](C)[C@@H](O)[C@@H](C)[C@H](OC(C)=O)[C@@H]1C	log10(MIC90)	-0.60
O=c1[nH]c2c(Br)csc2c(O)c1-c1ccc(Cl)cc1F	log10(MIC90)	1.20
Cc1ccc(C)c(-c2c(O)c3scc(Br)c3[nH]c2=O)c1	log10(MIC90)	1.51
Cc1ccccc1-c1c(O)c2scc(Br)c2[nH]c1=O	log10(MIC90)	-0.30

Data request: For the molecule "O=c1[nH]c2c(Br)csc2c(O)c1-c1cccc(Br)c1" , what log10(MIC90) is on record?
Data returned: 1.20

Data request: Also "O=c1[nH]c2c(Br)csc2c(O)c1-c1ccc(Br)cc1" ?
Data returned: 1.20

Data request: Also "O=c1[nH]c2c(Br)csc2c(O)c1-c1cccc(Oc2ccccc2)c1" ?
Data returned: 1.51

Data request: Also "N#Cc1ccc(-c2c(O)c3scc(Br)c3[nH]c2=O)cc1" ?
Data returned: 1.51

Data request: Also "O=c1[nH]c2c(Br)csc2c(O)c1-c1ccc2ccccc2c1" ?
Data returned: 1.20

Data request: Also "COc1ccc(-c2c(O)c3scc(Br)c3[nH]c2=O)cc1" ?
Data returned: 1.20

###

- System: Mycobacterium tuberculosis
- assay_overview: Antimycobacterial activity against marker-free avirulent autoluminescent Mycobacterium tuberculosis H37Ra assessed as inhibition of relative light unit relative to control
- Assay type: functional
Listing of entries alongside the reported MIC90.
Please reply with the bare figure in µg/mL and do not write the unit itself.

These recorded examples may help you get a feel for the data.
>>> print(df.to_string())
                        compound_string  endpoint_unit  numeric_value
0  O=c1[nH]c2c(Br)csc2c(O)c1-c1ccccc1Cl          µg/mL              1
1     O=c1[nH]c2c(Br)csc2c(O)c1-c1ccco1          µg/mL              8
2    O=c1[nH]c2c(Br)csc2c(O)c1-c1ccccc1          µg/mL            0.5

In the following, a different molecule is considered.
Data request: Which MIC90 is reported with Mycobacterium tuberculosis for this entry: "O=c1[nH]c2c(Br)csc2c(O)c1-c1ccc(C(F)(F)F)cc1" ?
Data returned: 16

###

- Test system: Mycobacterium tuberculosis
- assay_overview: Antimycobacterial activity against marker-free avirulent autoluminescent Mycobacterium tuberculosis H37Ra assessed as inhibition of relative light unit relative to control
- Format: functional
readout: MIC90

These recorded examples may help you get a feel for the data.
>>> df
                            compound_string                         tgt      result
0  O=c1[nH]c2c(Br)csc2c(O)c1-c1cccc([N+](=O)[O-])c1  Mycobacterium tuberculosis  > 64 µg/mL
1    O=c1[nH]c2c(Br)csc2c(O)c1-c1ccc(Cl)cc1  Mycobacterium tuberculosis  > 64 µg/mL
2  CC(C)(C)c1ccc(-c2c(O)c3scc(Br)c3[nH]c2=O)cc1  Mycobacterium tuberculosis  > 64 µg/mL

Data request: For the molecule "N#Cc1cccc(-c2c(O)c3scc(Br)c3[nH]c2=O)c1" , what MIC90 is on record?
Data returned: > 64 µg/mL

Data request: Also "O=c1[nH]c2c(Br)csc2c(O)c1-c1ccc(Cl)cc1Cl" ?
Data returned: > 64 µg/mL
